These entries and their values trace back to paper PMC8344243.

# maps each entry to its pIC50
- System: MCF-7
- EXPERIMENT NOTES: MTT anti-proliferative assay, MCF-7
- Assay type: cell-based
- EXPERIMENTAL CONDITIONS: Homo sapiens, MCF7; MCF-7, MTT assay; read-out: Cytotoxicity on cancer cells IC50, MCF-7
- Protocol: In vitro cytotoxic activities of the synthesised compounds were evaluated against two different cancer cell lines; breast cancer (MCF-7) and hepatocellular carcinoma (HepG2) using standard MTT colorimetric assay as described by Mosmann[78]^,[79]. […]. The in vitro antiproliferative activities were assessed using the MTT assay protocol[78]^,[79]^,[95]. As shown in Supplementary Data.
pIC50 here: minus log base 10 of the concentration, concentration in moles per litre.

The reported pIC50 of the compound Cc1nc2ccccc2nc1SCC(=O)Nc1ccc(C(=O)Nc2ccc([N+](=O)[O-])cc2)cc1 [Compound 30h] was 4.67

###

- SUBJECT OF TEST: human VEGFR-2 (Homo sapiens, UniProt P35968)
- Construct: endogenous in cells; host or cells: HepG2
- Sequence (P35968 20-1356): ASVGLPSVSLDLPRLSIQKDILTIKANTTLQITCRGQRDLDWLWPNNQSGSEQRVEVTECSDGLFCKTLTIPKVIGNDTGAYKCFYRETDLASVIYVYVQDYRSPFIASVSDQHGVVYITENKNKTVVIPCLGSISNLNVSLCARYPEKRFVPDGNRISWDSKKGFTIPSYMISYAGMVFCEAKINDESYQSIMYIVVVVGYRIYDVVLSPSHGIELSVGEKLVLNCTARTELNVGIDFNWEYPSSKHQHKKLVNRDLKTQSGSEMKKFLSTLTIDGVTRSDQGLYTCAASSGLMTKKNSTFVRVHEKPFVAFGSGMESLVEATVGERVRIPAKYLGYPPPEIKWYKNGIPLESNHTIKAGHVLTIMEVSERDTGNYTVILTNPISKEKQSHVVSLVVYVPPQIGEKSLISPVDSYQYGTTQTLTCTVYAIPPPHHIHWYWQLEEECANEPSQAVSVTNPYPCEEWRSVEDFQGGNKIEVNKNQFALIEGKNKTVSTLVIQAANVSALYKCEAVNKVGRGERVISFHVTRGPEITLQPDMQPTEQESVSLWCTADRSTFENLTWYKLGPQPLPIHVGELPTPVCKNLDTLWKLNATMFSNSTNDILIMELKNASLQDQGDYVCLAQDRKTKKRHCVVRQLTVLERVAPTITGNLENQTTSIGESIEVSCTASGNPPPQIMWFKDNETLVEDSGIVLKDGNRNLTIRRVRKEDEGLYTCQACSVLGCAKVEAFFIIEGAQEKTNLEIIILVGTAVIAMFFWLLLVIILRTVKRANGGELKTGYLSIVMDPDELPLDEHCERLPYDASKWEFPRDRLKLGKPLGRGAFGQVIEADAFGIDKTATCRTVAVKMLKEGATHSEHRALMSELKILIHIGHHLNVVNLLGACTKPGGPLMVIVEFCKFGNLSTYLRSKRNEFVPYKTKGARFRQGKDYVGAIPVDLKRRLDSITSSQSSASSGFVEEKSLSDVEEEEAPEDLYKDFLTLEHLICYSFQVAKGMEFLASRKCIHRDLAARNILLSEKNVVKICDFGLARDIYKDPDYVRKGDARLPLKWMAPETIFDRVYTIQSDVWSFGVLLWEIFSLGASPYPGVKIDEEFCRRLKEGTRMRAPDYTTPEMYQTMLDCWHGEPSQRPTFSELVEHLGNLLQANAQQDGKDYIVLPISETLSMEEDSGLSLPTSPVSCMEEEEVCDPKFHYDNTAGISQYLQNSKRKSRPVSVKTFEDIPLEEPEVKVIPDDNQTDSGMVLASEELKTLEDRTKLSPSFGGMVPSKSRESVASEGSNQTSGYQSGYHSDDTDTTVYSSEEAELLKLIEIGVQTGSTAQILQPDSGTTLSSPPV
- EXPERIMENT NOTES: In vitro VEGFR-2 enzyme inhibition assay (ELISA kit, HepG2 cell line)
- Type: biochemical
- EXPERIMENTAL CONDITIONS: human VEGFR-2 in HepG2 cell line
# maps each entry to its log10(IC50)
Plainly stated, the numbers are log10 of IC50 given in nM.

The reported log10(IC50) of the compound Cc1nc2ccccc2n(CC(=O)Nc2ccc(C(=O)NNc3ccccc3)cc2)c1=O [Compound 29] was 0.99

The reported log10(IC50) of the compound Cc1nc2ccccc2nc1SCC(=O)Nc1ccc(C(=O)NNC(=O)c2ccc([N+](=O)[O-])cc2)cc1 [Compound 31b] was 0.71

The reported log10(IC50) of the compound Cc1ccccc1NC(=O)c1ccc(NC(=O)CSc2nc3ccccc3nc2C)cc1 [Compound 30f] was 0.69

The reported log10(IC50) of the compound Cc1nc2ccccc2nc1SCC(=O)Nc1ccc(C(=O)NC2CCCCC2)cc1 [Compound 30b] was 0.94

The reported log10(IC50) of the compound Cc1nc2ccccc2nc1SCC(=O)Nc1ccc(C(=O)NNc2ccccc2)cc1 [Compound 32] was 1.38

The reported log10(IC50) of the compound Cc1nc2ccccc2nc1SCC(=O)Nc1ccc(C(=O)NNC(=O)c2ccccc2)cc1 [Compound 31a] was 1.03

The reported log10(IC50) of the compound Cc1nc2ccccc2n(CC(=O)Nc2ccc(C(=O)NCCc3ccccc3)cc2)c1=O [Compound 27b] was 1.35

###

# maps each entry to its melting point

Cc1nc2ccccc2nc1SCC(=O)Nc1ccc(C(=O)NCc2ccccc2)cc1 [Compound 30c]	235 to 237 °C
Cc1nc2ccccc2n(CC(=O)Nc2ccc(C(=O)Nc3ccc(Cl)cn3)cc2)c1=O [Compound 27f]	> 300 °C
Cc1nc2ccccc2nc1SCC(=O)Nc1ccc(C(=O)NCCc2ccccc2)cc1 [Compound 30d]	220 to 222 °C
Cc1nc2ccccc2n(CC(=O)Nc2ccc(C(=O)NCCc3ccccc3)cc2)c1=O [Compound 27b]	283 to 285 °C

The reported melting point of the molecule Cc1cccc(C)c1NC(=O)c1ccc(NC(=O)Cn2c(=O)c(C)nc3ccccc32)cc1 [Compound 27d] was 240 to 242 °C

The reported melting point of the molecule COc1cccc(OC)c1NC(=O)c1ccc(NC(=O)Cn2c(=O)c(C)nc3ccccc32)cc1 [Compound 27c] was > 300 °C

The reported melting point of the molecule Cc1nc2ccccc2nc1SCC(=O)Nc1ccc(C(=O)NC(C)(C)C)cc1 [Compound 30a] was 231 to 233 °C

###

- Tested on: HepG2
- EXPERIMENT NOTES: MTT anti-proliferative assay, HepG2
- Format: cell-based
- EXPERIMENTAL CONDITIONS: Homo sapiens, read-out: Cytotoxicity on cancer cells IC50, HepG2
PARAMETER: IC50 (µM)
Give your result in µM as a bare value.

Please review the entries below; each comes with its answer.
Cc1nc2ccccc2n(CC(=O)Nc2ccc(C(=O)NNC(=O)c3ccc([N+](=O)[O-])cc3)cc2)c1=O	11.7
Cc1nc2ccccc2nc1SCC(=O)Nc1ccc(C(=O)NCc2ccccc2)cc1 [Compound 30c]	34.1
Cc1ccccc1NC(=O)c1ccc(NC(=O)CSc2nc3ccccc3nc2C)cc1 [Compound 30f]	10.7

The reported IC50 of the compound Cc1cccc(C)c1NC(=O)c1ccc(NC(=O)Cn2c(=O)c(C)nc3ccccc32)cc1 [Compound 27d] was 24.1

The reported IC50 of the compound Cc1nc2ccccc2nc1SCC(=O)Nc1ccc(C(=O)NCCc2ccccc2)cc1 [Compound 30d] was 32.4

The reported IC50 of the compound Cc1nc2ccccc2n(CC(=O)Nc2ccc(C(=O)Nc3ccc([N+](=O)[O-])cc3)cc2)c1=O [Compound 27e] was 27.5

The reported IC50 of the compound Cc1nc2ccccc2nc1SCC(=O)Nc1ccc(C(=O)Nc2ccccc2)cc1 [Compound 30e] was 24.3

The reported IC50 of the compound Cc1nc2ccccc2nc1SCC(=O)Nc1ccc(C(=O)NNC(=O)c2ccc([N+](=O)[O-])cc2)cc1 [Compound 31b] was 13.7

The reported IC50 of the compound Cc1nc2ccccc2nc1SCC(=O)Nc1ccc(C(=O)Nc2ccc([N+](=O)[O-])cc2)cc1 [Compound 30h] was 17.7

The reported IC50 of the compound Cc1nc2ccccc2n(CC(=O)Nc2ccc(C(=O)NCCc3ccccc3)cc2)c1=O [Compound 27b] was 41.5

###

- Test system: MCF-7
- EXPERIMENT NOTES: MTT anti-proliferative assay, MCF-7
- Assay type: cell-based
- EXPERIMENTAL CONDITIONS: Homo sapiens, MCF7; MCF-7, MTT assay; read-out: Cytotoxicity on cancer cells IC50, MCF-7
PARAMETER: IC50 (µM)
Give your result in µM as a bare value.

Please review the entries below; each comes with its answer.
Cc1nc2ccccc2nc1SCC(=O)Nc1ccc(C(=O)NCCc2ccccc2)cc1 [Compound 30d]	42.7
Cc1nc2ccccc2n(CC(=O)Nc2ccc(C(=O)NNc3ccccc3)cc2)c1=O [Compound 29]	23.5
Cc1nc2ccccc2nc1SCC(=O)Nc1ccc(C(=O)NNc2ccccc2)cc1 [Compound 32]	59.5
Cc1nc2ccccc2nc1SCC(=O)Nc1ccc(C(=O)NC(C)(C)C)cc1 [Compound 30a]	61.9
Cc1nc2ccccc2n(CC(=O)Nc2ccc(C(=O)NNC(=O)c3ccc([N+](=O)[O-])cc3)cc2)c1=O [Compound 28]	17.2

--- query ---
The reported IC50 of the molecule Cc1nc2ccccc2n(CC(=O)Nc2ccc(C(=O)Nc3ccc([N+](=O)[O-])cc3)cc2)c1=O [Compound 27e] was 42.3

###

- SUBJECT OF TEST: human VEGFR-2 (Homo sapiens, UniProt P35968)
- Construct: endogenous in cells; host or cells: HepG2
- EXPERIMENT NOTES: In vitro VEGFR-2 enzyme inhibition assay (ELISA kit, HepG2 cell line)
- Type: biochemical
- EXPERIMENTAL CONDITIONS: human VEGFR-2 in HepG2 cell line
# maps each entry to its IC50
Give your result in nM as a bare value.

Please review the entries below; each comes with its answer.
Cc1nc2ccccc2n(CC(=O)Nc2ccc(C(=O)NC(C)(C)C)cc2)c1=O [Compound 27a]	3.2
Cc1nc2ccccc2nc1SCC(=O)Nc1ccc(C(=O)Nc2ccc(Cl)cn2)cc1 [Compound 30i]	6.1
COc1cccc(OC)c1NC(=O)c1ccc(NC(=O)CSc2nc3ccccc3nc2C)cc1 [Compound 30g]	38.9

Form field, IC50 with human VEGFR-2 (Homo sapiens, UniProt P35968), item Cc1nc2ccccc2nc1SCC(=O)Nc1ccc(C(=O)Nc2ccc([N+](=O)[O-])cc2)cc1 [Compound 30h] : 11.8
